Data origin, for the record: PubChem BioAssay (NCI)

Test system: PC-3 prostate
experiment.notes: NCI-60 one-dose screen, 48 h
condition: 10 µM unless noted
Protocol: Growth inhibition of the PC-3 human tumor cell line is measured as a screen for anti-cancer activity. Cells are grown in 96 well plates and exposed to the test compound for 48 hours. Compounds are tested at a single concentration, which is 10^-5 M for most compounds. The reported endpoint is percent growth (GI% or GIPRCNT), where numbers from 0 - 100% represent growth inhibition, and numbers from -100% - 0 represent cell death. For example, a value of 40 represents 60% growth inhibition. […]
Compounds without any hit were thinned out: in the full panel of roughly 83,000, 20% have a hit. Calls of active or inactive are those of the source. How the source made its calls: active means growth percent below 10; inactive means the rest.
One label from this list, please: yes = active, no = inactive

| compound | discrete.label |
| --- | --- |
| CCSc1nc(-c2ccco2)n2nc(-c3ccco3)cc2n1 | no |

Query string: Each compound tested received a call. Report the one for `CCCCCCCCCCOC(C)=O` .
Result string: no

Query string: Item: `C[C@H](C(=O)N[C@@H](Cc1ccc(-c2ccccc2)cc1)C(=O)NC1CC(C)(C)N(C)C(C)(C)C1)c1ccc(-c2ccccc2)c(F)c1`
Result string: yes

Query string: Try this compound too: `COc1cc(/C=C/C(=O)CC(=O)/C=C/c2ccc(OC(=O)CCNC34CC5CC(CC(C5)C3)C4)c(OC)c2)ccc1OC(=O)CCNC12CC3CC(CC(C3)C1)C2`
Result string: no

Query string: Could you do the same for CCN1CC2=C(Nc3nc(SC)[nH]c(=O)c3C2c2cc(OC)c(OC)c(OC)c2)/C(=C/c2cc(OC)c(OC)c(OC)c2)C1 (centres undefined) , please?
Result string: no

Query string: Proceed to `Nc1ccc2c(c1)Cc1cc(Cl)c(Cl)cc1-2`
Result string: no

Query string: Likewise for `c1ccc(-c2n(Cc3ccc4ccccc4c3)cc[n+]2Cc2ccc3ccccc3c2)cc1` ?
Result string: yes

Query string: Quick one: `Cc1onc(-c2ccccc2Cl)c1C(=O)N[C@@H]1C(=O)N2[C@@H]1SC(C)(C)[C@@H]2C(=O)O`
Result string: no

Query string: Consider next the compound `O=C1N=C(N2CCOCC2)S/C1=C\c1cn(-c2ccccc2)nc1-c1ccccc1` in the same way.
Result string: no
